Please go through the items and note down their CAR+ (gate frequency).
- Study Target: CAR-3
- Protocol Summary: flow cytometry; clonal supernatant on control CAR-3 T cells, FITC goat anti-rabbit F(ab')2 detection

Consider the following illustrative entries.
Binder	CAR+ (gate frequency)
Clone 9-1 (antibody, V domains shown) VH: QQQLEESGGGLVKPGGTLTLTCTASGFSFSSGQWMCWVRQAPGKGLELIACIYTSAGGSTHYASWATGRFTISKTSSTTVTLQMTSLTAADTATYFCARDPYLLSAGPDNNLWGPGTLVAVSS VL: ALVMTQTPSPVSAAVGGTVTINCQASQSIGSDFTWWQQKPGQPPKLLIYWASTLASGVSSRFKGSGSGTQFTLTISDLECDDAATYYCAGYVSYSDDGNAFGGGTEVVVK	0.11
Clone 9-9 (antibody, V domains shown) VH: QQQLEESGGGLVKPGGTLTLTCTASGFSFSSGQRMCWVRQAPGKGLELIACIYTSAGGSTHYASWATGRFTISKTSSTTVTLQMTSLTAADTATYFCARDPYLLSAGPDNNLWGPGTLVAVSS VL: ALVMTQTPSPVSAAVGGTVTINCQASQSIGSDFTWWQQKPGQPPKLLIYWASTLASGVSSRFKGSGSGTQFTLTISDLECDDAATYYCAGYVSYSDDGNAFGGGTEVVVK	0.13
Clone 63-1 (antibody, V domains shown) VH: QEQLEESGGDLVKPGASLTLTCTASGFSFSSGYWICWVRQAPGKGLEWIACIYTRSGGSTHYASWAKGRFTTSKTSSTTVTLQMTSLTAADMATYFCARDPYVLSAGPDNVLWGPGTLVTVSS VL: ALVMTQTPSPVSAAVGGTVTINCQASESIGSDLGWYQQKPGQPPKFLIYWASTLVSGVPSRFEGSGSGTQFTLTISDLECDDAATYYCAGYESLSNDGNAFGGGTEVVVK	0.14

Could you now consider this next binder?
Query CAR+ (gate frequency) for Clone 18-4 (antibody, V domains shown) VH: QERLVESGGGLVQPEGSLTLTCTASGLTLSNYWLCWVRQAPGKGLEWIACIYTGNYGSAYYANWVKGRFTISKASSTTVTLQMTSLTAADTATYFCARDPYTLTNVDVLWGPGTLVTVSS VL: ALVMTQTPSPVSAAVGGTVTINCQASQSIGSDLAWYQQRPGQPPKLLIYWASTLASGVPSRFSGSGSGTQFTLTISDLECDDAATYYCTGYISYNDDNAAFGGGTEVVVK
1.81
